measurement.notes: Binding affinity to GABA-gated chloride channel (unknown origin) by radioligand displacement assay
Set-up: species or system Homo sapiens

{"columns": ["chem.smiles", "result.unit", "IC50"],
 "data": [
  ["C=C(C)[C@@H]1[C@H]2OC(=O)[C@@H]1[C@]1(O)C[C@H]3O[C@]34C(=O)O[C@H]2[C@]14C", "nM", 250]
]}

====

system: voltage-gated potassium channel (Homo sapiens, UniProt O43525+O43526+O95259+P16389+P17658+P22001+P22459+P22460+P48547+P51787+P56696+Q03721+Q09470+Q12809+Q14003+Q14721+Q16322+Q6PIU1+Q8NCM2+Q8TAE7+Q8TDN1+Q8TDN2+Q92953+Q96KK3+Q96L42+Q96PR1+Q96RP8+Q9BQ31+Q9H252+Q9H3M0+Q9NR82+Q9NS40+Q9NSA2+Q9NZV8+Q9UIX4+Q9UJ96+Q9UK17+Q9ULD8+Q9ULS6+Q9UQ05)
measurement.notes: Binding affinity to voltage-gated potassium channel (unknown origin) at 10 uM by radioligand displacement assay relative to control
Type: protein assay

{"columns": ["chem.smiles", "inhibition at 10 µM [%]"],
 "data": [
  ["C[C@H]1[C@@H](c2ccccc2)CC(=O)N1CC(N)=O", -2]
]}
